- Test system: Clone20 osteoblast Shn3 3'UTR firefly luciferase, 24 h
- protocol.summary: Shn3 3'UTR reporter inhibitors, dose response, cell-based, Clone20 osteoblasts, luminescence, dry powder, set 2 (AID 743417)
Records with an inconclusive call do not appear. The source made the active and inactive calls.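 Rule for the calls: active = compounds lowering the luciferase signal with a fitted half-maximal dose at most twice their top valid dose (cut at about 30 µM in these data); inconclusive = flat fits with moderate signal loss, or poor fits; inactive = the rest.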
One label from this list, please: 1 for active, -1 for inactive

Consider the following illustrative entries.
* COc1ccc(OC)c(C(c2nnnn2Cc2ccccc2)N2CCN(C3CCCCC3)CC2)c1 (stereo not given) | -1
* Cc1cc(C)c(C(N)=O)c(SCC(=O)c2cc(C)n(-c3cc(C)on3)c2C)n1 | 1

Request: Recorded test call requested for Cc1nnc(NC(=O)c2nc(S(=O)(=O)Cc3ccccc3C)ncc2Cl)s1
Response: 1

Request: Recorded test call requested for Cc1cc(NNC(=O)c2cccc(C(F)(F)F)c2)nc2c1c(C)nn2C
Response: 1

Request: Recorded test call requested for CCCCC(=O)NC(c1ccccc1Cl)c1ccc2cccnc2c1O (stereo not given)
Response: 1

Request: Recorded test call requested for CC(C)Cn1c(N)c(C(=O)COC(=O)CC23CC4CC(CC(C4)C2)C3)c(=O)n(C)c1=O
Response: 1

Request: Recorded test call requested for Cc1ccc(CC(=O)Nc2ccncc2)cc1
Response: 1

Request: Recorded test call requested for Oc1ccc(CCNc2ncnc3ccc(Cl)cc23)cc1
Response: 1

Request: Recorded test call requested for CC(C)(C)c1ccc(C(=O)NCCCN2CCN(CCCNC(=O)c3ccc(C(C)(C)C)cc3)CC2)cc1
Response: 1

Request: Recorded test call requested for CC(Sc1nc2ccccc2c(=O)n1C)C(=O)Nc1ccc2c(c1)OCCO2 (stereo not given)
Response: 1

---

Each record here notes measured AC50.
- Test system: Clone20 osteoblast Shn3 3'UTR firefly luciferase, 24 h
- protocol.summary: Shn3 3'UTR reporter inhibitors, dose response, cell-based, Clone20 osteoblasts, luminescence, dry powder, set 2 (AID 743417)
Results filed as inconclusive are left out.

# count of solved cases: 8
- C[C@@H]1COC(=O)[C@@H](NC(=O)OCC2c3ccccc3-c3ccccc32)C/C=C\C[C@@H](CC(=O)N(CCO)Cc2ccccc2)C(=O)N1: 1.89 µM
- COc1ccc(CC(=O)Nc2ccncc2Cl)cc1: 2.12 µM
- CC(C)(C)n1nnnc1C(c1ccc(C(F)(F)F)cc1)N(Cc1ccc(F)cc1)Cc1ccco1 (centres undefined): 10.1 µM
- Cc1ccc(S(=O)(=O)N2CCCCC2)cc1NC(=O)Cn1ncc(Cl)c(Cl)c1=O: 4.32 µM
- O=c1c2ccccc2nc2n1C(CSCc1cccc(C(F)(F)F)c1)CS2 (centres undefined): 1.68 µM
- CN(Cc1ccc(Cl)c(Cl)c1)C(=O)c1cccc(S(=O)(=O)N2CCN(Cc3ccccc3)CC2)c1: 3.47 µM
- CN(c1cccc(NC(=O)CN(c2ccc(C34CC5CC(CC(C5)C3)C4)cc2)S(C)(=O)=O)c1)S(C)(=O)=O: 7.58 µM
- Cc1cc(C)c(C)c(S(=O)(=O)N2CCN(c3ncnc4ccccc34)CC2)c1C: 1.46 µM

Request: AC50 for Cc1[nH]nc2c1-c1nc3ccccc3nc1C(C)(C)C2 ?
Response: 4.2 µM

---

- Test system: Clone20 osteoblast Shn3 3'UTR firefly luciferase, 24 h
- protocol.summary: Shn3 3'UTR reporter inhibitors, dose response, cell-based, Clone20 osteoblasts, luminescence, dry powder, set 2 (AID 743417)
Results filed as inconclusive are left out.
experimental.endpoint: AC50

# count of solved cases: 4
• CC(C)CCNc1nc(N)c([N+](=O)[O-])c(N2CCCCCC2)n1 = 8.79 µM
• O=C1C(F)=CC(COC(c2ccccc2)(c2ccccc2)c2ccccc2)OC1n1cc(F)c(=O)[nH]c1=O (centres undefined) = 0.428 µM
• CC(O)CC(=O)OC[C@]12CC[C@H]3[C@@](C)(CC[C@H]4C(C)(C)CCC[C@]34C)[C@@H]1CC(C1=CC(=O)OC1O)O2 (some centres undefined) = 3.75 µM
• CSc1nc(N2CCN(Cc3ccc4c(c3)OCO4)CC2)c2ccccc2n1 = 24.1 µM

Request: AC50 for COc1ccc(C)c2sc(N(CCCN(C)C)C(=O)c3ccc(S(=O)(=O)N4CCc5ccccc5C4)cc3)nc12 ?
Response: 4.4 µM

Request: AC50 for CCOC(=O)Cn1c(=O)c(-c2cc(Br)ccc2N)nc2ccccc21 ?
Response: 0.758 µM

Request: AC50 for CC1CCC2C(=O)N(c3ccc(Cc4ccncc4)cc3)C(=O)C2C1 (centres undefined) ?
Response: 2.65 µM

Request: AC50 for CCCNc1nc2c(c(=O)n(C)c(=O)n2C)n1Cc1cccc(C)c1 ?
Response: 1.91 µM

Request: AC50 for CCOc1cc2c(cc1OCC)-n1cccc1C(c1ccc(C(C)C)cc1)NC2 (centres undefined) ?
Response: 7.22 µM
